# tested-target: CDK6/Cyclin D1 (Homo sapiens (Human), UniProt Q00534)
# Sequence (Q00534 whole entry): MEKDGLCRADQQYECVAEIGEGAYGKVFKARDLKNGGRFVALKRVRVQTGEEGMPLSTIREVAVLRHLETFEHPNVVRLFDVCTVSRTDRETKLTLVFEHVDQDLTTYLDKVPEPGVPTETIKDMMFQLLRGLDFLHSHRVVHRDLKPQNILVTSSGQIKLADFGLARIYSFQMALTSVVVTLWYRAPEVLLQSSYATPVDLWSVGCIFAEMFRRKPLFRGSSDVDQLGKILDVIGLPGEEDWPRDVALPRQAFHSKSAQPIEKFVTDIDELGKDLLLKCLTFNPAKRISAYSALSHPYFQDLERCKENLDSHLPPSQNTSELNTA
# Sequence (P24385 whole entry partner): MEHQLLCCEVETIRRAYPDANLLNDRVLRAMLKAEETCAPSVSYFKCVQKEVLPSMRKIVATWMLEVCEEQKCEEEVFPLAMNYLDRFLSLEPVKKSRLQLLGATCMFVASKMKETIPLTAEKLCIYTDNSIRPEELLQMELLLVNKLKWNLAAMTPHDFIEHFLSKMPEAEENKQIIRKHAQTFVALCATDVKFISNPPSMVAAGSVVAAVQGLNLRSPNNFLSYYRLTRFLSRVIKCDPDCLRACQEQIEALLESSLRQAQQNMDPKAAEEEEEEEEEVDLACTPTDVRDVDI
# assay-comment: CDK6/CyclinD1 enzymatic activity assay (TR-FRET)
# measurement-context: CDK6/Cyclin D1 1 nM, ATP 250 μM, read-out: CDK6_D1 IC50
# Procedure: CDK6/CyclinD1 Enzymatic Activity Assay The inhibitory activity of compounds was evaluated in vitro using TR-FRET assay with white 384-well low volume microplate (Greiner Bio-One). CDK6/Cyclin D1 catalyzed phosphorylation of peptide in the presence and absence of compounds was measured and used in IC50 determination. […] The reaction signal was measured by Envision multimode plate reader (PerkinElmer, 2102-0010). […]
quantity-name: IC50

For orientation, consider the following solved cases.
molecule	IC50
CCN1CCC(c2ccc(Nc3ncc(F)c(-c4cc5c(s4)C4(CCCC4)N(C)C5=O)n3)nc2)CC1 [Example 23]	≤ 20 nM
Cc1c(-c2nc(Nc3ccc(C4CCN(C(C)C)C4)cn3)ncc2F)sc2c1C(=O)N(C)C21CC1 (centres unmarked) [Example 16]	≤ 20 nM
Cc1c(-c2nc(Nc3ccc(C4CCCN(C)C4)cn3)ncc2F)sc2c1C(=O)N(C)CC21CC1 (centres unmarked) [Example 30]	≤ 20 nM
CCN1CCN(Cc2ccc(Nc3ncc(F)c(-c4sc5c(c4C)C(=O)N(C)C54CC4)n3)nc2)CC1 [Example 13]	≤ 20 nM
CCN1CC2(C1)CN(c1ccc(Nc3ncc(F)c(-c4ccc5c(c4)C4(CCCC4)N(C)C5=O)n3)nc1)C2 [Example 78]	20 to 200 nM
CCN1CC2(C1)CN(c1ccc(Nc3ncc(F)c(-c4cc5c(s4)C4(CCCC4)N(C)C5=O)n3)nc1)C2 [Example 24]	≤ 20 nM
CCN1CC2(C1)CN(c1ccc(Nc3ncc(F)c(-c4cc5c(s4)C4(CCCC4)CN(C)C5=O)n3)nn1)C2 [Example 82]	≤ 20 nM
Cc1c(-c2nc(Nc3ccc(C4CCN(C)CC4)cn3)ncc2F)sc2c1C(=O)N(C)CC21CC1 [Example 28]	≤ 20 nM
CN1CCC(c2ccc(Nc3ncc(F)c(-c4cc5c(n4C)C4(CCCC4)CN(C)C5=O)n3)nc2)CC1 [Example 74]	20 to 200 nM
CN1CCC(c2ccc(Nc3ncc(F)c(-c4cc5c(s4)C4(CC4)N(C)C5=O)n3)nc2)CC1 [Example 8]	≤ 20 nM

-- ask Param item = Cc1c(-c2nc(Nc3ccc(N4CC5(CCN(C)C5)C4)cn3)ncc2F)sc2c1C(=O)N(C)CC21CC1 [Example 35] ; retrieve measured IC50.
-- reply ≤ 20 nM

-- ask Param item = CCN1CC2(C1)CN(c1ccc(Nc3ncc(F)c(-c4cc5c(s4)C4(CCCCC4)CN(C)C5=O)n3)nc1)C2 [Example 4] ; retrieve measured IC50.
-- reply 20 to 200 nM

###

Let's look at some molecules and their measured IC50.
# tested-target: CDK4/Cyclin D1 (Homo sapiens (Human), UniProt P11802)
# Sequence (P11802 whole entry): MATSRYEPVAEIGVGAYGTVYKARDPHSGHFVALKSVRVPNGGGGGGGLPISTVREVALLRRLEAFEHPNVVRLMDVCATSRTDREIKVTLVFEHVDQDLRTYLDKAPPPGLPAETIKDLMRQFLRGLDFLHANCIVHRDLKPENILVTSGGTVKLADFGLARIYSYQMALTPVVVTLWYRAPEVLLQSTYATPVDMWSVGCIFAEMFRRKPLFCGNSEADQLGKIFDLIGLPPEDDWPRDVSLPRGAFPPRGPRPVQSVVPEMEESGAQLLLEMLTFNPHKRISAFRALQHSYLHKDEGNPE
# Sequence (P24385 whole entry partner): as the sequence (P24385 whole entry partner) above
# assay-comment: CDK4/CyclinD1 enzymatic activity assay (TR-FRET)
# measurement-context: CDK4/CyclinD1 1 nM, ATP 2 mM, read-out: CDK4_D1 IC50

molecule	result
Cc1c(-c2nc(Nc3ccc(C4CCN(C(C)C)C4)cn3)ncc2F)sc2c1C(=O)N(C)C21CC1 (stereo not drawn)	≤ 20 nM
CCN1CCN(Cc2ccc(Nc3ncc(F)c(-c4ccc5c(c4)C4(CCCC4)CN(C)C5=O)n3)nc2)CC1	≤ 20 nM

// moving on: another record for IC50
-- ask Param item = Cc1c(-c2nc(Nc3ccc(C4CCN(C)CC4)cn3)ncc2F)sc2c1C(=O)N(C)C21CC1 ; retrieve measured IC50.
-- reply ≤ 20 nM

###

# tested-target: CDK6/Cyclin D1 (Homo sapiens (Human))
# assay-comment: CDK6/CyclinD1 enzymatic activity assay (TR-FRET)
# measurement-context: CDK6/Cyclin D1 1 nM, ATP 250 μM, read-out: CDK6_D1 IC50
pIC50: −log10 of the molar value.
Let's look at some compounds and their measured pIC50.

For orientation, consider the following solved cases.
compound	quantity-name	result
Cc1c(-c2nc(Nc3ccc(N4CCC5(CC4)CN(C)C5)cn3)ncc2F)sc2c1C(=O)N(C)CC21CC1	pIC50	≥ 7.70
CN1CCC(c2ccc(Nc3ncc(F)c(-c4cc5c(s4)C4(CCOCC4)CN(C)C5=O)n3)nc2)CC1	pIC50	6.70 to 7.70
CCN1C[C@H]2CN(c3ccc(Nc4ncc(F)c(-c5sc6c(c5C)C(=O)N(C)CC65CC5)n4)nc3)C[C@@H]2C1	pIC50	≥ 7.70
Cc1cnc(Nc2ccc(C3CCN(C)CC3)cn2)nc1-c1cc2c(s1)C1(CC1)N(C)C2=O	pIC50	6.70 to 7.70
CCN1CCC(c2ccc(Nc3ncc(F)c(-c4sc5c(c4C)C(=O)N(C)C54CC4)n3)nc2)C1 (centres unmarked)	pIC50	≥ 7.70
CN1CCC(c2ccc(Nc3nc(-c4cc5c(s4)C4(CCC4)CN(C)C5=O)ncc3C(F)(F)F)nc2)CC1	pIC50	≥ 7.70

-- ask Tell me reported pIC50 for Cc1c(-c2nc(Nc3ccc(C4CCN(C)CC4)cn3)ncc2F)sc2c1C(=O)N(C)C21CCCC1 , tested with CDK6/Cyclin D1 (Homo sapiens (Human)).
-- reply ≥ 7.70

###

Let's look at some compounds and their measured Kp at 4 h.
# assay-comment: Brain-to-plasma ratio determination in Sprague-Dawley rats
# Assay type: in vivo
# measurement-context: rat, male Sprague-Dawley rats, four hours after a single oral dose (3, 4, 5, or 10 mg/kg)

For orientation, consider the following solved cases.
compound	quantity-name	result
CCN1CC2(C1)CN(c1ccc(Nc3ncc(F)c(-c4cc5c(s4)C4(CCCCC4)CN(C)C5=O)n3)nc1)C2 [Example 4]	Kp at 4 h	1 to 3
CN1CCN(c2ccc(Nc3ncc(F)c(-c4cc5c(s4)C4(CCC4)CN(C)C5=O)n3)nc2)CC1 [Example 50]	Kp at 4 h	≥ 3
CCN1CC2(C1)CN(c1ccc(Nc3ncc(F)c(-c4ccc5c(c4)C4(CCCC4)N(C)C5=O)n3)nc1)C2 [Example 78]	Kp at 4 h	1 to 3
Cc1c(-c2nc(Nc3ccc(C4CCN(C)CC4)cn3)ncc2F)sc2c1C(=O)N(C)CC21CCCC1 [Example 63]	Kp at 4 h	≥ 3
CCN1C(=O)c2c(sc(-c3nc(Nc4ccc(C5CCN(C)CC5)cn4)ncc3F)c2C)C12CC2 [Example 7]	Kp at 4 h	1 to 3

-- ask Param item = Cc1c(-c2nc(Nc3ccc(N4CC5(CCN(C)C5)C4)cn3)ncc2F)sc2c1C(=O)N(C)C21CC1 [Example 14] ; retrieve measured Kp at 4 h.
-- reply 1 to 3

-- ask Param item = CN1CCC(c2ccc(Nc3ncc(F)c(-c4ccc5c(c4)C4(CCCC4)CN(C)C5=O)n3)nc2)CC1 [Example 67] ; retrieve measured Kp at 4 h.
-- reply ≥ 3

-- ask Param item = CCN1CC2(C1)CN(c1ccc(Nc3ncc(F)c(-c4ccc5c(c4)C4(CCCC4)CN(C)C5=O)n3)nc1)C2 [Example 66] ; retrieve measured Kp at 4 h.
-- reply 1 to 3

-- ask Param item = CCN1CC2(C1)CN(c1ccc(Nc3ncc(C)c(-c4cc5c(s4)C4(CC4)CN(C)C5=O)n3)nc1)C2 [Example 41] ; retrieve measured Kp at 4 h.
-- reply < 1

-- ask Param item = Cc1c(-c2nc(Nc3ccc(N4CCC5(CCN(C)C5)C4)cn3)ncc2F)sc2c1C(=O)N(C)CC21CCC1 (stereo not drawn) [Example 55] ; retrieve measured Kp at 4 h.
-- reply < 1

-- ask Param item = Cc1c(-c2nc(Nc3ccc(C4CCCN(C)C4)cn3)ncc2F)sc2c1C(=O)N(C)C21CC1 (stereo not drawn) [Example 15] ; retrieve measured Kp at 4 h.
-- reply 1 to 3

-- ask Param item = CCN1CC2(C1)CN(c1ccc(Nc3ncc(F)c(-c4sc5c(c4C)C(=O)N(C)C54CC4)n3)nc1)C2 [Example 12] ; retrieve measured Kp at 4 h.
-- reply < 1

-- ask Param item = CCN1C[C@H]2CN(c3ccc(Nc4ncc(F)c(-c5sc6c(c5C)C(=O)N(C)CC65CC5)n4)nc3)C[C@@H]2C1 [Example 39] ; retrieve measured Kp at 4 h.
-- reply 1 to 3

-- ask Param item = CN1CCC(c2ccc(Nc3ncc(F)c(-c4cc5c(s4)C4(CCCC4)CN(C)C5=O)n3)nc2)CC1 [Example 2] ; retrieve measured Kp at 4 h.
-- reply 1 to 3

-- ask Param item = Cc1cnc(Nc2ccc(C3CCN(C)CC3)cn2)nc1-c1cc2c(s1)C1(CCC1)CN(C)C2=O [Example 59] ; retrieve measured Kp at 4 h.
-- reply 1 to 3

###

Let's look at some compounds and their measured IC50.
# Test system: MCF7 adenocarcinoma cell line
# assay-comment: Cell proliferation studies in MCF7 cells (ATP-Lite)
# Format: cell-based
# measurement-context: Homo sapiens, 240 h, 10 days incubation, cell viability by ATP-Lite luminescence, read-out: PROLIFERATION_CTG_MCF7 IC50

For orientation, consider the following solved cases.
structure	quantity-name	result
CCN1CC2(C1)CN(c1ccc(Nc3ncc(F)c(-c4ccc5c(c4)C4(CCCC4)CN(C)C5=O)n3)nc1)C2	IC50	20 to 200 nM
CCN1CCC12CN(c1ccc(Nc3ncc(F)c(-c4cc5c(s4)C4(CCC4)CN(C)C5=O)n3)nc1)C2	IC50	20 to 200 nM
CN1CCC(c2ccc(Nc3ncc(F)c(-c4ccc5c(c4)C4(CCCC4)CN(C)C5=O)n3)nc2)CC1	IC50	20 to 200 nM

-- ask Param item = Cc1cnc(Nc2ccc(N3CCC4(CC3)CN(C)C4)cn2)nc1-c1cc2c(s1)C1(CC1)CN(C)C2=O ; retrieve measured IC50.
-- reply 20 to 200 nM

-- ask Param item = Cc1c(-c2nc(Nc3ccc(N4CC5CC(C4)N5C)cn3)ncc2F)sc2c1C(=O)N(C)CC21CC1 ; retrieve measured IC50.
-- reply 20 to 200 nM

-- ask Param item = CN1CCC(c2ccc(Nc3nc(-c4cc5c(s4)C4(CC4)CN(C)C5=O)ncc3C(F)(F)F)nc2)CC1 ; retrieve measured IC50.
-- reply ≤ 20 nM

-- ask Param item = CN1CC2(CCC2)c2sc(-c3nc(Nc4ccc(N5CCN6CCC5CC6)cn4)ncc3F)cc2C1=O ; retrieve measured IC50.
-- reply 20 to 200 nM
